Below is a list of entries, each paired with its recorded inhibition at 10 µM value.
- assayed_system: human GPR84 receptor (Homo sapiens)
- Construct: host or cells: HEK293, transient transfection
- method_description: Gαi biosensor BRET assay in HEK293 cells (antagonism of ZQ-16)
- Type: cell-based
- condition_description: HEK293, single concentration 10 μM (designated F)

compound: Cc1c(-c2ccc(C#CC3CC3)cc2)nnn1CC1CCCCS1(=O)=O (stereo not shown)
inhibition at 10 µM: ≤ 25%
--
compound: Cc1cc(N2CC(C)(NCc3ccccn3)C2)ccc1-c1cn(CC2CCCCO2)nn1 (stereo not shown)
inhibition at 10 µM: 50 to 75%
--
compound: Cc1ccc(C#CC2CC2)cc1-n1nc(CC2CCCCO2)oc1=O (stereo not shown)
inhibition at 10 µM: > 75%

// switching to the query compound
Prompt: // fetch inhibition at 10 µM; item: CC(=O)N(C)C(C)(C)COc1ccc(-c2cn(CC3CCCCO3)nn2)c(C)c1 (stereo not shown) ; system: human GPR84 receptor (Homo sapiens)
Completion: 25 to 50%

----------
- assayed_system: human GPR84 receptor (Homo sapiens, UniProt Q9NQS5)
- Construct: host or cells: HEK293, transient transfection
- Sequence (Q9NQS5 whole entry): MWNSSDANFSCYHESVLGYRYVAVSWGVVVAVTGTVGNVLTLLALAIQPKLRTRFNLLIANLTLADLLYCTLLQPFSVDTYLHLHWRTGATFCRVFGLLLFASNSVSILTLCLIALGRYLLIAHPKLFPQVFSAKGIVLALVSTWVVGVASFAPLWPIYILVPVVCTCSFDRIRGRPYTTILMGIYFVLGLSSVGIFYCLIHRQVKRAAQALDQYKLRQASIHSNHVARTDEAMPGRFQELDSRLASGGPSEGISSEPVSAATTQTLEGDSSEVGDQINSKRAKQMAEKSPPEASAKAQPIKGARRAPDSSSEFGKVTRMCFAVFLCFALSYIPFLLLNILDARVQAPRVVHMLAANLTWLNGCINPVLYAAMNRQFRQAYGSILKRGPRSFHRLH
- method_description: Gαi biosensor BRET assay in HEK293 cells (antagonism of ZQ-16)
- Type: cell-based
- condition_description: HEK293, single concentration 25 μM (designated I)
measurement_label: inhibition at 25 µM

compound: Cc1cc(OCc2ccccn2)ccc1-c1cn(CC2CCCCO2)nn1 (stereo not drawn) [Compound I-54]
assayed_system: human GPR84 receptor (Homo sapiens, UniProt Q9NQS5)
inhibition at 25 µM: 50 to 75%

Prompt: Give inhibition at 25 µM for C(#CC1CC1)c1ccc(-n2cc(CC3CCCO3)nn2)cc1 (stereo not drawn) [Compound I-295]
Completion: ≤ 25%

Prompt: Give inhibition at 25 µM for Cc1cc(C#CC2CC2)ccc1-n1cc(CN2CCOCC2)nn1 [Compound I-297]
Completion: ≤ 25%

Prompt: Give inhibition at 25 µM for C(#CC1CC1)c1ccc(-c2cn(CC3CCCCO3)nn2)cn1 (stereo not drawn) [Compound I-35]
Completion: ≤ 25%

Prompt: Give inhibition at 25 µM for C(#CC1CC1)c1ccc(-c2cn(CC3CCCCO3)nn2)s1 (stereo not drawn) [Compound I-38]
Completion: 50 to 75%

Prompt: Give inhibition at 25 µM for Cc1ccc(-c2ccc(-c3nnn(CC4CCCCO4)n3)cc2)cn1 (stereo not drawn) [Compound I-2]
Completion: ≤ 25%

Prompt: Give inhibition at 25 µM for C(#CC1CC1)c1ccc(-c2nnn(CC3COCCO3)n2)cc1 (stereo not drawn) [Compound I-3]
Completion: ≤ 25%

Prompt: Give inhibition at 25 µM for C(#CC1CC1)c1cccc(-c2nnn(CC3COCCO3)n2)c1 (stereo not drawn) [Compound I-6]
Completion: ≤ 25%

Prompt: Give inhibition at 25 µM for Cc1ccc(C#CC2CC2)cc1-c1cn(CC2CCCCO2)nn1 (stereo not drawn) [Compound I-65]
Completion: > 75%

Prompt: Give inhibition at 25 µM for C(#CC1CC1)c1ccc(-c2cnn(CC3CCCCO3)c2)cc1 (stereo not drawn) [Compound I-317]
Completion: ≤ 25%

----------
Below is a list of entries, each paired with its recorded IC50 value.
- assayed_system: human GPR84 receptor (Homo sapiens, UniProt Q9NQS5)
- method_description: Gαi biosensor BRET assay in HEK293 cells (antagonism of ZQ-16)
- condition_description: HEK293 cells, antagonism of 200 nmol/L ZQ-16

// solved cases for IC50 follow
molecule: COCC#Cc1cnc(-c2cn(CC3OCC(C)(C)CO3)nn2)c(OC2CC2)c1
IC50: ≤ 0.3 µM
//
molecule: Cc1cc(N2CCN(Cc3ccccn3)CC2)ccc1-c1cn(C[C@@H]2CCC(F)(F)CO2)nn1 (stereo in doubt)
IC50: ≤ 0.3 µM
//
molecule: CC1(CO)CN(c2ccc(-c3cn(CC4OCC5(CCC5)O4)nn3)c(OC3CC3)c2)C1 (centres unmarked)
IC50: 0.3 to 1 µM

Prompt: Give IC50 for `CC1(C)COC(Cn2cc(-c3ccc(N4CCN(Cc5ccccn5)CC4)cc3CC(F)(F)F)nn2)OC1`
Completion: ≤ 0.3 µM

Prompt: Give IC50 for `CC(C)Oc1cc(C#CCN2CC(C)(C)C2)cnc1-c1cn(C[C@H]2CCCCO2)nn1`
Completion: 0.3 to 1 µM

Prompt: Give IC50 for `CCc1cc(C#CCOC)ccc1-c1cn(CC2OCC(C)(C)CO2)nn1`
Completion: ≤ 0.3 µM

Prompt: Give IC50 for `CO[C@@H](c1cn(C[C@H]2CCCCO2)nn1)c1cc(C#CC2CC2)ccc1C`
Completion: 0.3 to 1 µM

Prompt: Give IC50 for CN(C)c1cc(N2CC(C)(CO)C2)ccc1-c1cn(C[C@H]2CC(C)(C)CO2)nn1 (stereo in doubt)
Completion: ≤ 0.3 µM

Prompt: Give IC50 for `C(#CC1CC1)c1cnc(-c2cn(CC3OCC4(CC4)CO3)nn2)c(OC2CC2)c1`
Completion: ≤ 0.3 µM

Prompt: Give IC50 for Cc1ccccc1-c1cn(CC#Cc2ccc(-c3cn(CC4CCCCO4)nn3)c(C)c2)nn1 (centres unmarked)
Completion: ≤ 0.3 µM

Prompt: Give IC50 for `CCc1cc(C#CCNc2ccccn2)cnc1-c1cn(C[C@H]2CCCCO2)nn1`
Completion: > 3 µM

Prompt: Give IC50 for CCc1cc(C#CCNC(=O)OC(C)(C)C)ccc1-c1cn(CC2CCCCO2)nn1 (centres unmarked)
Completion: 0.3 to 1 µM

Prompt: Give IC50 for Cc1cc(C#CCNC(=O)OCc2ccccc2)ccc1-c1cn(CC2CCCCO2)nn1 (centres unmarked)
Completion: 0.3 to 1 µM

Prompt: Give IC50 for COc1cc(C#CC2CC2)ccc1-c1cn(CC2CCCCO2)nn1 (centres unmarked)
Completion: > 3 µM

Prompt: Give IC50 for `CN(C)c1cc(N2CC(C)(C)C2)ccc1-c1cn(CC2OCC(C)(C)CO2)nn1`
Completion: ≤ 0.3 µM

Prompt: Give IC50 for Cc1cc(C#CC(C)C)ccc1-c1cn(CC2CCCCO2)nn1 (centres unmarked)
Completion: > 3 µM

Prompt: Give IC50 for Cc1cc(N2CC3(CCN(c4ccccn4)CC3)C2)ccc1-c1cn(CC2CCCCO2)nn1 (centres unmarked)
Completion: 1 to 3 µM

Prompt: Give IC50 for Cc1cc(N2CCN(Cc3cccnn3)CC2)ccc1-c1cn(CC2CCCCO2)nn1 (centres unmarked)
Completion: > 3 µM

Prompt: Give IC50 for Cc1cc(C#CCN(C)CC2(C(F)(F)F)CC2)ccc1-c1cn(CC2CCCCO2)nn1 (centres unmarked)
Completion: 1 to 3 µM

Prompt: Give IC50 for Cc1ccc(C#CC2CC2)cc1C(OCC(F)(F)F)c1cn(CC2OCC(C)(C)CO2)nn1 (centres unmarked)
Completion: ≤ 0.3 µM

Prompt: Give IC50 for CN(C)c1cc(N2CC(C)(CO)C2)c(F)cc1-c1cn(CC2CC(C)(C)CO2)nn1 (centres unmarked)
Completion: ≤ 0.3 µM

Prompt: Give IC50 for CC(C)Oc1cc(C#CC2CC(F)(F)C2)cnc1-c1cn(CC2CCCCO2)nn1 (centres unmarked)
Completion: 1 to 3 µM

Prompt: Give IC50 for `Cc1cc(N2CCN(Cc3ccccn3)CC2)ccc1-c1cn(CC2OCC(C)(C)CO2)cn1`
Completion: 0.3 to 1 µM

Prompt: Give IC50 for Cc1cc(C#CCN2CC(C)(C)C2)ccc1-c1cn(CC2CCCCO2)nn1 (centres unmarked)
Completion: 1 to 3 µM
